target: GAS41 YEATS domain (Homo sapiens, UniProt O95619)
Sequence (O95619 15-159): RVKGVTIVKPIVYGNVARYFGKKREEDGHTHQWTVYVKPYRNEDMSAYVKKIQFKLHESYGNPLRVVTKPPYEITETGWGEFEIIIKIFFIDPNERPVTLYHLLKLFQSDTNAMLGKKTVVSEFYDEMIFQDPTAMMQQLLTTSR
pIC50: −log10 of the molar value.
Experimental Endpoint: pIC50

>>> test_value("C[C@H](NC(=O)[C@@H](NC(=O)[C@H](CCC(N)=O)NC(=O)OCc1ccccc1)[C@@H](C)O)C(=O)N[C@@H](CCCNC(=N)N)C(=O)N[C@@H](CCCCNC(=O)c1cnco1)C(N)=O")
4.84

###

Target: ENL YEATS domain (Homo sapiens)
Sequence (Q03111 1-138): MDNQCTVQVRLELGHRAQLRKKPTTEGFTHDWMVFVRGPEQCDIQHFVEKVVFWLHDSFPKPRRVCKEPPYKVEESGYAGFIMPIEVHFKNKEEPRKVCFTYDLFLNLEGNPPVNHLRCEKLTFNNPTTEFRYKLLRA
Experimental Endpoint: IC50 (µM)

>>> test_value("C[C@H](NC(=O)[C@@H](NC(=O)[C@H](CCC(N)=O)NC(=O)OCc1ccccc1)[C@@H](C)O)C(=O)N[C@@H](CCCNC(=N)N)C(=O)N[C@@H](CCCCNC(=O)c1ccco1)C(N)=O")
1.3
>>> test_value("C[C@@H]1NC(=O)[C@H]([C@H](C)O)NC(=O)[C@@H](NC(=O)OCc2ccccc2)CCCCNC(=N)NCCC[C@H](C(=O)N[C@@H](CCCCNC(=O)c2ccco2)C(N)=O)NC1=O")
43.6
>>> test_value("CC(=O)N[C@@H](C)C(=O)N[C@@H](CCCNC(=N)N)C(=O)N[C@@H](CCCCNC(=O)c1cnco1)C(N)=O")
0.56
>>> test_value("C[C@@H]1NC(=O)[C@H]([C@H](C)O)NC(=O)[C@@H](NC(=O)OCc2ccccc2)Cn2cc(nn2)CNC(=N)NCCC[C@H](C(=O)N[C@@H](CCCCNC(=O)c2cnco2)C(N)=O)NC1=O")
9.23

###

target: YEATS2 domain (Homo sapiens); construct: His-SUMO-YEATS2 (201-332); His (N); SUMO (N); made in house; host or cells: E. coli Rosetta; test: Photo-cross-linking-based competition assay; assay type: binding; settings: competition with photoaffinity probe, in-gel fluorescence
Sequence (Q9ULM3 201-332): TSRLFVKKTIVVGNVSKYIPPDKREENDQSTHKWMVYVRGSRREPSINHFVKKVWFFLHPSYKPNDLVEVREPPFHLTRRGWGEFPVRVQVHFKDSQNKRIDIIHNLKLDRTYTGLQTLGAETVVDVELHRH
Experimental Endpoint: IC50 (µM)

>>> test_value("C[C@H](NC(=O)[C@@H](NC(=O)[C@H](CCC(N)=O)NC(=O)OCc1ccccc1)[C@@H](C)O)C(=O)N[C@@H](CCCNC(=N)N)C(=O)N[C@@H](CCCCNC(=O)c1cnco1)C(N)=O")
98.7
>>> test_value("C[C@H](NC(=O)[C@@H](NC(=O)[C@H](CCC(N)=O)NC(=O)OCc1ccccc1)[C@@H](C)O)C(=O)N[C@@H](CCCNC(=N)N)C(=O)N[C@@H](CCCCNC(=O)c1ccco1)C(N)=O")
42.4

###

log10 IC50 values for the compounds below.
Target: AF9 YEATS domain (Homo sapiens, UniProt P42568)
Sequence (P42568 1-138): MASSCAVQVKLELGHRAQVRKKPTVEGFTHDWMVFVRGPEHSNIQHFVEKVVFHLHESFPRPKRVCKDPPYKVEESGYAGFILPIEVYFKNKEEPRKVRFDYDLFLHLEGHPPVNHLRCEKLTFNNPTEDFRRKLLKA
Residues, ends and D or L forms follow the SMILES beside them. *: point of attachment. Oxazole(5-CO) = O=C(c1cnco1)*; Crotonyl(E) = C/C=C/C(=O)*; 2Furoyl = O=C(c1ccco1)*; X1 = O=C(c1ccoc1)*
Experimental Endpoint: log10 IC50 (log10 of the value in nM)

>>> test_value("C[C@H](NC(=O)[C@@H](NC(=O)[C@H](CCC(N)=O)NC(=O)[C@@H](N)CCCCN)[C@@H](C)O)C(=O)N[C@@H](CCCNC(=N)N)C(=O)N[C@@H](CCCCNC(=O)c1cnco1)C(=O)N[C@@H](CO)C(=O)N[C@H](C(=O)NCC(=O)NCC(N)=O)[C@@H](C)O [Compound 13] (H-KQTARK(Oxazole(5-CO))STGG-NH2)")
2.87
>>> test_value("C[C@H](NC(=O)[C@@H](NC(=O)[C@H](CCC(N)=O)NC(=O)OCc1ccccc1)[C@@H](C)O)C(=O)N[C@@H](CCCNC(=N)N)C(=O)N[C@@H](CCCCNC(=O)c1ccco1)C(N)=O [peptide control]")
2.28
>>> test_value("C/C=C/C(=O)NCCCC[C@H](NC(=O)[C@H](CCCNC(=N)N)NC(=O)[C@H](C)NC(=O)[C@@H](NC(=O)[C@H](CCC(N)=O)NC(=O)[C@@H](N)CCCCN)[C@@H](C)O)C(=O)N[C@@H](CO)C(=O)N[C@H](C(=O)NCC(=O)NCC(N)=O)[C@@H](C)O [Compound 85, reference compound] (H-KQTARK(Crotonyl(E))STGG-NH2; N-terminus and C-terminus assumed)")
3.78
>>> test_value("C[C@H](NC(=O)[C@@H](NC(=O)[C@H](CCC(N)=O)NC(=O)[C@@H](N)CCCCN)[C@@H](C)O)C(=O)N[C@@H](CCCNC(=N)N)C(=O)N[C@@H](CCCCNC(=O)c1ccco1)C(=O)N[C@@H](CO)C(=O)N[C@H](C(=O)NCC(=O)NCC(N)=O)[C@@H](C)O [Compound 7] (H-KQTARK(2Furoyl)STGG-NH2)")
3.11
>>> test_value("C[C@H](NC(=O)[C@@H](NC(=O)[C@H](CCC(N)=O)NC(=O)[C@@H](N)CCCCN)[C@@H](C)O)C(=O)N[C@@H](CCCNC(=N)N)C(=O)N[C@@H](CCCCNC(=O)c1ccco1)C(N)=O [Compound 25] (H-KQTARK(2Furoyl)-NH2; N-terminus and C-terminus assumed)")
2.66
>>> test_value("C[C@@H]1NC(=O)[C@H]([C@H](C)O)NC(=O)[C@@H](NC(=O)OCc2ccccc2)CCCCNC(=N)NCCC[C@H](C(=O)N[C@@H](CCCCNC(=O)c2ccco2)C(N)=O)NC1=O")
3.26
>>> test_value("C[C@H](NC(=O)[C@@H](NC(=O)[C@H](CCC(N)=O)NC(=O)[C@@H](N)CCCCN)[C@@H](C)O)C(=O)N[C@@H](CCCNC(=N)N)C(=O)N[C@@H](CCCCNC(=O)c1ccoc1)C(=O)N[C@@H](CO)C(=O)N[C@H](C(=O)NCC(=O)NCC(N)=O)[C@@H](C)O [Compound 8] (H-KQTARK(X1)STGG-NH2)")
3.23
